Listed here: items and their measured pKd.
target: PDLIM1, O00151; experiment: holdup assay; design: key: below the threshold = too weak to quantify, mostly under pKd 3.1 to 4; settings: plain residues with an end cap or a label only (N-terminal biotin on a linker: ado-ado)
Sequence (O00151 1-87): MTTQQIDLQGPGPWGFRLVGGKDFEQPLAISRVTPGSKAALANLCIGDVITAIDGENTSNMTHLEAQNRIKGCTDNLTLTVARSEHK

{"binder": "PYSESDDDWC [CACNA1A, O00555]", "pKd": 3.68}
{"binder": "EIPAQSPTCV [FZD10, Q9ULW2]", "pKd": 3.68}
